Listing of entries alongside the reported EC50.
- tested_on: hTREM2 (Homo sapiens)
- Sequence (Q9NZC2 19-230): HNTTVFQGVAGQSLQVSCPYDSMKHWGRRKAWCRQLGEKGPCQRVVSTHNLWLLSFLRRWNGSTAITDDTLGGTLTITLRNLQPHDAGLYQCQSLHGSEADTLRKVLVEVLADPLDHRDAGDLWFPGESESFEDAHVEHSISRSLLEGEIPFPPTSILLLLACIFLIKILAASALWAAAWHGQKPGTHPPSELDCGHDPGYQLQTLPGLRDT
- Sequence (O43914 22-113 partner): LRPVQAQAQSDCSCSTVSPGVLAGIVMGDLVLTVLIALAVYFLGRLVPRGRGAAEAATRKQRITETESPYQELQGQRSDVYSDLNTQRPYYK
- experimental_details: Phospho-Syk AlphaScreen/AlphaLISA assay in TREM2 and DAP12 overexpressing HEK293 cells (Example A1)
- Type: cell-based
- Design: expressed in transfected cells
- condition: HEK293 cells, read-out: hTREM2 EC50

compound | EC50
CCCn1c(C)nc2cc(N3CCO[C@H](C(F)F)C3)nc(-c3ccc(Cl)cc3F)c2c1=O [Example 183] | 500 to 3000 nM
Cc1nc2cc(N3CC[C@H](n4cccn4)C3)nc(-c3ccc(Cl)cc3F)c2c(=O)n1C | 3000 to 100000 nM
Cc1nc2cc(N3CCO[C@@H](c4cnn(C)c4)C3)nc(-c3ccc(C(F)(F)F)nc3)c2c(=O)n1C | 500 to 3000 nM
Cc1nc2cc(N3CCOC(c4ccnnc4)C3)nc(-c3ccc(Cl)cc3F)c2c(=O)n1C (stereo not shown) | 50 to 500 nM
Cc1nc2cc(N3CCOC(c4ccnn4C)C3)nc(-c3ccc(Cl)cc3F)c2c(=O)n1C (stereo not shown) | 500 to 3000 nM
CCCn1c(C)nc2cc(N3CCO[C@@H](C(F)F)C3)nc(-c3ccc(Cl)cc3F)c2c1=O | 500 to 3000 nM
Cc1nc2cc(N3C[C@@H](C)O[C@H](c4ccsc4)C3)nc(-c3ccc(Cl)cc3F)c2c(=O)n1C (single isomer, unassigned) | 500 to 3000 nM

====

Listing of entries alongside the reported pEC50.
- tested_on: hTREM2 (Homo sapiens)
- experimental_details: Phospho-Syk AlphaScreen/AlphaLISA assay in TREM2 and DAP12 overexpressing HEK293 cells (Example A1)
- Type: cell-based
- Parameters: expressed in transfected cells
- condition: HEK293 cells, read-out: hTREM2 EC50
pEC50: −log10 of the molar value.
value_kind: pEC50

compound | tested_on | value_kind | value_measured
Cc1nc2cc(N3CCOC(C)(c4cnn(C)c4)C3)nc(-c3ccc(Cl)cc3F)c2c(=O)n1C (stereo not shown) | hTREM2 (Homo sapiens) | pEC50 | 4.00 to 5.52
Cc1cnn([C@H]2CCN(c3cc4nc(C)n(C)c(=O)c4c(-c4ccc(Cl)cc4F)n3)C2)c1 | hTREM2 (Homo sapiens) | pEC50 | 4.00 to 5.52
Cc1ccc([C@@H]2C[C@@H](c3cc4nc(C)n(C)c(=O)c4c(-c4ccc(Cl)cc4F)n3)CCO2)cn1 | hTREM2 (Homo sapiens) | pEC50 | 6.30 to 7.30
Cc1ccc(C2CN(c3cc4nc(C)n(C)c(=O)c4c(-c4ccc(Cl)cc4F)n3)CCO2)cn1 (stereo not shown) | hTREM2 (Homo sapiens) | pEC50 | 6.30 to 7.30

====

- tested_on: hTREM2 (Homo sapiens)
- experimental_details: Phospho-Syk AlphaScreen/AlphaLISA assay in TREM2 and DAP12 overexpressing HEK293 cells (Example A1)
- Format: cell-based
- Set-up: expressed in transfected cells
- condition: HEK293 cells, read-out: hTREM2 EC50

molecule | tested_on | EC50
Cc1nc2cc([C@@H]3CCO[C@H](c4cnn(C5CC5)c4)C3)nc(-c3ccc(Cl)cc3F)c2c(=O)n1C (single isomer, unassigned) | hTREM2 (Homo sapiens) | 500 to 3000 nM
Cc1nc2cc(N3CCC(c4nccn4C)C3)nc(-c3ccc(Cl)cc3F)c2c(=O)n1C (stereo not drawn) | hTREM2 (Homo sapiens) | 3000 to 100000 nM
Cc1nc2cc(N3CCO[C@H](c4ccncc4)C3)nc(-c3ccc(Cl)cc3F)c2c(=O)n1C (single isomer, unassigned) [Example 48] | hTREM2 (Homo sapiens) | 500 to 3000 nM
COc1cc([C@@H]2CN(c3cc4nc(C)n(C)c(=O)c4c(-c4ccc(Cl)cc4F)n3)CCO2)ccn1 (single isomer, unassigned) [Example 83] | hTREM2 (Homo sapiens) | 50 to 500 nM
Cc1nc2cc(N3C[C@@H](C)O[C@H](c4cnn(C)c4)C3)nc(-c3ccc(Cl)cc3F)c2c(=O)n1C (single isomer, unassigned) | hTREM2 (Homo sapiens) | 50 to 500 nM
Cc1nc2cc(N3CCO[C@H](c4cccc(C(F)(F)F)c4)C3)nc(-c3ccc(Cl)cc3F)c2c(=O)n1C (single isomer, unassigned) | hTREM2 (Homo sapiens) | 50 to 500 nM
